# Measured Target: L-lactate dehydrogenase (Plasmodium falciparum (isolate CDC / Honduras)) (UniProt Q27743)
# Sequence (Q27743 whole entry, looked up): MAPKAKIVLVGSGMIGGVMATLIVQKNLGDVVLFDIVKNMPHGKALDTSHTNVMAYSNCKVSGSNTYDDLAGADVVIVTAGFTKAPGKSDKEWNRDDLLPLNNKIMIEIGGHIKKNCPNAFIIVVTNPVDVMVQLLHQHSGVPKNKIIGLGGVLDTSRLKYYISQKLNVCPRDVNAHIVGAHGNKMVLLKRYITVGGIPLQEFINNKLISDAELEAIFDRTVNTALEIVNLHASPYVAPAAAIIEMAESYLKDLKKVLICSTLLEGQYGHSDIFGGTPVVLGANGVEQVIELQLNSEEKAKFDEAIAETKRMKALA
# Protocol Summary: PfLDH activity inhibition – cell lysate, 3D7 strain, counter-screen for P. falciparum growth inhibition project (AID 2304);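 also: 0% = vehicle and 100% = reference inhibitor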
# Stated Conditions: P. falciparum 3D7 crude extract, LDH APAD/NBT absorbance; at 2 µM; hits give high values
Measurement Label: inhibition (%)
Kindly provide the numeric value in % only, without the unit symbol.

Below, 4 compounds whose answers are already recorded.
[[record]]
compound = "O=C(/C=C/c1ccc(Cl)c(Cl)c1)NCCCCCN1C2CCC1CC(c1c[nH]c3ccccc13)C2 (stereo not given)"
quantitative_readout = -1

[[record]]
compound = "CC[C@H]1CN2CCc3cc(OC)c(OC)cc3[C@@H]2C[C@@H]1C[C@H]1NCCc2c1cc(OC)c(O)c2Cl"
quantitative_readout = 2

[[record]]
compound = "CCCCCc1cc(O)c2c3c(c(=O)oc2c1)CN(C)CC3"
quantitative_readout = 4

[[record]]
compound = "CC1CN=C(Nc2ncc(Cl)cc2Cl)N1 (stereo not given)"
quantitative_readout = 7


Here's the next entry for you.
Problem: Endpoint output: inhibition of CC(C)/C(=C(/F)CN1C(=O)C(NC(=O)c2cc3ccccc3[nH]2)C(=O)N(c2ccccc2)c2ccccc21)c1ccccc1 (stereo not given) . Value?
Solution: -2
